Read-out: Macrophage colony-stimulating factor (MCSF), CSF1 (gene 1435)
EXPERIMENT: BSK_hDFCGF_MCSF: BioMAP Diversity Plus: hDFCGF Assay for Macrophage colony-stimulating factor (MCSF) Biomarker Activity (AID 2283060)
CONDITION DESCRIPTION: primary human foreskin fibroblasts; actives raise or lower the signal
Activity calls are given as the source filed them. How the source made its calls: active means hit-call score of the fitted dose curve at least 0.9, where 1 is the maximum; inactive means score below 0.9.
Answer with one of the outcomes given here: true (1) = active, false (0) = inactive

Input line: Please let me know the test result on file for `CNc1cnn(-c2cccc(C(F)(F)F)c2)c(=O)c1Cl` .
Output line: false (0)

Input line: Please let me know the test result on file for `CN(C)C(=O)Nc1cccc(C(F)(F)F)c1` .
Output line: false (0)

Input line: Please let me know the test result on file for FC(F)C(F)(F)OCC(Cn1cncn1)c1ccc(Cl)cc1Cl (centres undefined) .
Output line: true (1)

Input line: Please let me know the test result on file for `CCCSP(=O)(OCC)SCCC` .
Output line: false (0)
